Molecular target: T1, murine heparanase (Mus musculus, UniProt Q6YGZ1)
T1 construct: made in house; host or cells: Hek293 cells (conditioned medium), inferred for the ELISA
T1 sequence (Q6YGZ1 28-535): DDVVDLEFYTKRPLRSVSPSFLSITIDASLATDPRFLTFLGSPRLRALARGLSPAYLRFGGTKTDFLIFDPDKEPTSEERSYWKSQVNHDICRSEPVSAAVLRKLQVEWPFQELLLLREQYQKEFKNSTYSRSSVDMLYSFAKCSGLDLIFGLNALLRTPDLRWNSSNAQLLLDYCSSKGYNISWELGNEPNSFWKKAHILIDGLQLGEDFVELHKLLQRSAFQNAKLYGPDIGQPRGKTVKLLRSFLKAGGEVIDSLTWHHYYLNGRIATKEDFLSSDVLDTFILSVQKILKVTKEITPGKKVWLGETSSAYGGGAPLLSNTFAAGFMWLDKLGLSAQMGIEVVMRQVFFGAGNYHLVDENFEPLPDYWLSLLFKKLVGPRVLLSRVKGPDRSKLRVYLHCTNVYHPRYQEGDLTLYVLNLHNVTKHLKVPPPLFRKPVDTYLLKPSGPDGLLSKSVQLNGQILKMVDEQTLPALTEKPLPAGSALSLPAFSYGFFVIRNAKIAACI
Test: Cross species capture ELISA, murine heparanase
Assay type: binding
Conditions: min 0.06, max 0.9 OD units
Readout: Binding to heparanase Mouse (OD units)

{"columns": ["Molecule", "Uom", "Numeric readout"],
 "data": [
  ["15A11.1: fully human anti-heparanase monoclonal antibody, G2κ; VH SEQ ID NO 10, VL SEQ ID NO 12; ATCC PTA-9490 (antibody, listed as Homo Sapiens, V domains shown, fully human anti-heparanase monoclonal antibody, G2κ; ATCC PTA-9490) VH: QVQLVQSGAEVKKPGASVKVSCKVSGDTLTELSMHWVRQTPGKGLEWMGGFDPEDGETIYAQKFQGRVTMTGDTSTDTAYMELSSLRSEDTAVYYCATEGDYGDSEEYYYYYGMDVWGQGTTVTVSS VL: DIQMTQSPSSLSASVGDRVTITCRASQGISNYLAWYQQKPGKVPKLLIYAASTLQSGVPSRFSGSGSGTDFTLTISSLQPEDVATYYCQKYNRAPFTFGPGTKVDIK", "OD units", 0.17]
]}
